test.system: 5-HT7R (Homo sapiens (Human), UniProt P34969)
Sequence (P34969 whole entry): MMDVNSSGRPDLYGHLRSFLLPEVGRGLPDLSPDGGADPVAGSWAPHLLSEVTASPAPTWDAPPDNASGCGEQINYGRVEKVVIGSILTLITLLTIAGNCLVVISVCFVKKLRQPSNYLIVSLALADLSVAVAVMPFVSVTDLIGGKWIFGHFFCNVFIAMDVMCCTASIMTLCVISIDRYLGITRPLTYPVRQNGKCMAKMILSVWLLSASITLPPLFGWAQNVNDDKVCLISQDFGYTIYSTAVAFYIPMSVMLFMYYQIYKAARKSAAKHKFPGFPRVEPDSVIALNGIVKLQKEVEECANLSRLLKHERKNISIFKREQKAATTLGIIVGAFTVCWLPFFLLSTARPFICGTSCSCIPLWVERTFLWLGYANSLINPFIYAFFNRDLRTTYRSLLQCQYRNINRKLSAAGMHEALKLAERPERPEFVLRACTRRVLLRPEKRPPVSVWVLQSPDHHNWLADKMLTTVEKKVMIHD
procedure.details: cAMP assay (luminescence-based, GloSensor)
Type: cell-based
experimental.setup: 10 μM; HEK293 cells transfected with human 5-HT7R and GloSensor-22F
Catalogue of inhibition at 10 µM readings, one per entry.
Express it in %; write the number only.

chemical.string	inhibition at 10 µM [%]
Cc1cccc(-c2cc(CN3CCCC3)ccc2Cl)c1	51.8
Clc1ccccc1-c1cc(C2=NCCN2)ccc1Cl	53.8
Cc1ccc(-c2cccc(CN3CCCC3)c2)cc1	32.5
Cc1cccc(-c2cccc(CN3CCCC3)c2)c1	38.9
COc1ccccc1-c1cc(CN2CCCC2)ccc1Cl	51.8
COc1ccc(-c2cc(C3=NCCN3)ccc2Cl)cc1	36.8

Form field - read-out: inhibition at 10 µM; system: 5-HT7R (Homo sapiens (Human), UniProt P34969); submitted item: COc1ccccc1-c1cccc(C2=NCCN2)c1 94.1

Now try Cc1cccc(-c2cc(C3=NCCN3)ccc2Cl)c1 . 48.1
